target: PDE4; assay: Inhibition of PDE4, radioenzymatic phosphodiesterase assay; format: biochemical, bovine; settings: Table 3, formula (II); 1 μM cyclic AMP
Please respond with reported pIC50 for every item in the list.
Numbers only, as −log10 of the molar value.

CCOc1cc2c(cc1OC)C(c1ccccc1)=NC(Cc1cccc(C#N)c1)C(=O)N2C (stereo not drawn)	5.82
CCN1C(=O)C(Cc2ccccc2Cl)N=C(c2ccccc2)c2cc(OC)c(OC)cc21 (stereo not drawn)	5.55
CCN1C(=O)C(Cc2ccccc2[N+](=O)[O-])N=C(c2ccccc2)c2cc(OC)c(OC)cc21 (stereo not drawn)	5.62
CCN1C(=O)CN=C(c2ccc(C#CCOCc3ccccc3)cc2)c2cc(OC)c(OC)cc21	5.53
CCN1C(=O)C(Cc2cc(Cl)ccc2Cl)N=C(c2ccccc2)c2cc(OC)c(OC)cc21 (stereo not drawn)	5.09

Please state pIC50 for every compound in the list that follows.
1. COc1cc2c(cc1OC)N(C)C(=O)CN=C2c1cccc(-c2ccccc2)c1
2. COc1cc2c(cc1OC)N(C)C(=O)CN=C2c1ccc2cc(OCc3ccccc3)ccc2c1
3. CCN1C(=O)C(Cc2cccc(-c3ccccc3)c2)N=C(c2ccccc2)c2cc(OC)c(OC)cc21 (stereo not drawn)
4. CCOc1cc2c(cc1OCC)N(Cc1ccccc1)C(=O)CN=C2c1ccccc1

[5.18, 5.80, 5.32, 5.19]

Cited source: patent US7250410B2
